target: SREBP-2 (Homo sapiens (Human), UniProt Q12772); test: In vitro assay SREBP-2: PathHunter U2OS SREBP-2 Nuclear Translocation Cell Line, U18666A-stimulated; assay type: cell-based; details: PathHunter U2OS SREBP-2 nuclear translocation cells, U18666A 10 μM, overnight (16 hours)
pIC50: −log10 of the molar value.
EXPERIMENTAL_READOUT: pIC50

Task: State the recorded pIC50 for this entry: C[C@H](CCc1cccc(Cl)n1)[C@H]1CC[C@H]2[C@@H]3CC=C4C[C@@H](O)CC[C@]4(C)[C@H]3CC[C@]12C [Example 165]
Output: 6.00 to 6.60

Please look at the items below and tell me pIC50 for each one, in order.
1. CNC(=O)c1cccc(OC[C@@H](C)[C@H]2CC[C@H]3[C@@H]4CC=C5C[C@@H](O)CC[C@]5(C)[C@H]4CC[C@]23C)n1 [Example 256]
2. C[C@H](CCC(=O)N(C)C1CCN(C(=O)N2CCCC2)CC1)[C@H]1CC[C@H]2[C@@H]3CC=C4C[C@@H](O)CC[C@]4(C)[C@H]3CC[C@]12C [Example 645]
3. C[C@H](CCC(=O)N1CC[C@H](Oc2ccncc2)C[C@@H]1C)[C@H]1CC[C@H]2[C@@H]3CC=C4C[C@@H](O)CC[C@]4(C)[C@H]3CC[C@]12C [Example 585]
4. C[C@H](CCC(=O)N1CCN(C(=O)c2ccncn2)CC1)[C@H]1CC[C@H]2[C@@H]3CC=C4C[C@@H](O)CC[C@]4(C)[C@H]3CC[C@]12C [Example 334]

Output:
1: 6.00 to 6.60; 2: > 6.60; 3: > 6.60; 4: > 6.60
